molecular target: Progesterone receptor (Homo sapiens, UniProt P06401); test: Antagonistic activity was determined in Human progesterone receptor(hPR) of CV-1 cells in cotransfection assay.
Sequence (P06401 whole entry): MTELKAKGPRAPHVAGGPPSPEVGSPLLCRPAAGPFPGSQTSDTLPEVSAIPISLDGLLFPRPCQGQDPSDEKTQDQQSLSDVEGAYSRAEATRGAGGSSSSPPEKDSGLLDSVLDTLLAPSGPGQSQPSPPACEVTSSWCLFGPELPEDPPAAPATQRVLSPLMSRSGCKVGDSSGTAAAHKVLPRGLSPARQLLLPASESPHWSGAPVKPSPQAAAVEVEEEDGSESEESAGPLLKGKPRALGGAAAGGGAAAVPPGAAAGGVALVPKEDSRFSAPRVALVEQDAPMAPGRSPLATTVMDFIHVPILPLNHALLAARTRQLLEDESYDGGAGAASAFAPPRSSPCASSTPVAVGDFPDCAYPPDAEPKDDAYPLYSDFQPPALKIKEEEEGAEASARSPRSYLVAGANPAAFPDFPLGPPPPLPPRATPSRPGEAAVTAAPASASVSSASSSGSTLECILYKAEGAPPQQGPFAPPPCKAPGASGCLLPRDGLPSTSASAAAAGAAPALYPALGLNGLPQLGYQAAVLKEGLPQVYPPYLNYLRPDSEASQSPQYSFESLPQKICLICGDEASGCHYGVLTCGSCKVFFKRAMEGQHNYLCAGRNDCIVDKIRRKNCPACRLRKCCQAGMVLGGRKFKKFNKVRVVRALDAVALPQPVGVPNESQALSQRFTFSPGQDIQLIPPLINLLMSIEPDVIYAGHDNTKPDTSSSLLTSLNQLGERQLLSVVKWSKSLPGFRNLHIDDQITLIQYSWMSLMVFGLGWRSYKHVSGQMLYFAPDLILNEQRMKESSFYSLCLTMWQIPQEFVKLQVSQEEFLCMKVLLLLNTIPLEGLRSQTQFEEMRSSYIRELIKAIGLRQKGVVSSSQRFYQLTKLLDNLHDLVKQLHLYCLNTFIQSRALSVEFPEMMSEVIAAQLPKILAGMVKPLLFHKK
reported.property: pIC50
Worth noting: pIC50 values are minus log10 of concentrations stated in mol/L.

>  <molecule>
CC(=O)c1ccc(C2Oc3ccccc3-c3ccc4c(c32)C(C)=CC(C)(C)N4)cc1 (configuration not stated)

>  <pIC50>
6.88

$$$$
>  <molecule>
CC1=CC(C)(C)Nc2ccc3c(c21)C(c1ccc(C(F)(F)F)cc1)Oc1ccccc1-3 (configuration not stated)

>  <pIC50>
6.82

$$$$
>  <molecule>
CC1=CC(C)(C)Nc2ccc3c(c21)C(c1ccccc1)Oc1ccccc1-3 (configuration not stated)

>  <pIC50>
6.54

$$$$
>  <molecule>
CC1=CC(C)(C)Nc2ccc3c(c21)C(c1cccc(Cl)c1)Oc1ccccc1-3 (configuration not stated)

>  <pIC50>
6.03

$$$$
>  <molecule>
CC1=CC(C)(C)Nc2ccc3c(c21)C(c1ccc(Cl)c(Cl)c1)Oc1ccccc1-3 (configuration not stated)

>  <pIC50>
6.14

$$$$

The measured pIC50 associated with CC1=CC(C)(C)Nc2ccc3c(c21)C(c1ccc(C)cc1)Oc1ccccc1-3 (configuration not stated) reads 6.60

The measured pIC50 associated with CC1=CC(C)(C)Nc2ccc3c(c21)C(c1ccc(Cl)cc1)Oc1ccccc1-3 (configuration not stated) reads 6.22

The measured pIC50 associated with CC1=CC(C)(C)Nc2ccc3c(c21)C(c1ccc(Br)nc1)Oc1ccccc1-3 (configuration not stated) reads 7.27

The measured pIC50 associated with CC1=CC(C)(C)Nc2ccc3c(c21)C(c1cccc(Br)c1)Oc1ccccc1-3 (configuration not stated) reads 5.94

The measured pIC50 associated with CC1=CC(C)(C)Nc2ccc3c(c21)C(c1ccc(F)c(C(F)(F)F)c1)Oc1ccccc1-3 (configuration not stated) reads 5.34

The measured pIC50 associated with CC1=CC(C)(C)Nc2ccc3c(c21)C(c1ccc(F)cc1)Oc1ccccc1-3 (configuration not stated) reads 6.47

The measured pIC50 associated with CC1=CC(C)(C)Nc2ccc3c(c21)C(c1ccc(Br)cc1)Oc1ccccc1-3 (configuration not stated) reads 5.50

* * *

Target: Androgen receptor (Homo sapiens, UniProt P10275)
Sequence (P10275 whole entry): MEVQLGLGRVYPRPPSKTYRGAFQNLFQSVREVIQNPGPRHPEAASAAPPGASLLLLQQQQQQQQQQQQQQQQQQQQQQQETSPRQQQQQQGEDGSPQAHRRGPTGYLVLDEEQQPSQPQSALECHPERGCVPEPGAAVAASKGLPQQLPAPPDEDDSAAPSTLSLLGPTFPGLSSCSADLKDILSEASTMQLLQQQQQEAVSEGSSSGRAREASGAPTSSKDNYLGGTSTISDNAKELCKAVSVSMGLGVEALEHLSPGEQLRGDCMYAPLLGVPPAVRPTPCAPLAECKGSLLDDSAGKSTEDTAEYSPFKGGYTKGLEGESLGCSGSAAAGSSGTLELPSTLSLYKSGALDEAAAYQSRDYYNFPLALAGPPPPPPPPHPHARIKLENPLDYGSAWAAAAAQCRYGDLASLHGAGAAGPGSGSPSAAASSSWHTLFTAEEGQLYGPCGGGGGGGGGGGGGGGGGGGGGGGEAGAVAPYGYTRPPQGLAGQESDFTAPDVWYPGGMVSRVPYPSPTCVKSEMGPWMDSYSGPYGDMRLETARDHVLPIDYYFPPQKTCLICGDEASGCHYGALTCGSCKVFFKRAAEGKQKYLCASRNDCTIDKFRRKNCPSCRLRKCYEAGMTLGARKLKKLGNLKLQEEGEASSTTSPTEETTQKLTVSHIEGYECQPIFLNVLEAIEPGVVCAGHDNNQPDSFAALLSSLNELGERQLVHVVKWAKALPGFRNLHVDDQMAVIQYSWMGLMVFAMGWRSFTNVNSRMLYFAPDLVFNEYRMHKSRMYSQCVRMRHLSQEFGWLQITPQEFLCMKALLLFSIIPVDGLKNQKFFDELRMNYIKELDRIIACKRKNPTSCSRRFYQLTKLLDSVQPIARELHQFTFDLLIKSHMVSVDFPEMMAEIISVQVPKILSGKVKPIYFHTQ
reported.property: Ki (nM)
Report only the number, with the unit nM understood.

>  <molecule>
CC1=CC(C)(C)Nc2ccc3c(c21)C(c1ccc(Cl)c(Cl)c1)Oc1ccccc1-3 (stereo unspecified)

>  <Ki / nM>
5830

$$$$
>  <molecule>
CC1=CC(C)(C)Nc2ccc3c(c21)C(c1cccc(Cl)c1)Oc1ccccc1-3 (stereo unspecified)

>  <Ki / nM>
1530

$$$$
>  <molecule>
CC1=CC(C)(C)Nc2ccc3c(c21)C(c1ccc(Cl)c(F)c1)Oc1ccccc1-3 (stereo unspecified)

>  <Ki / nM>
1460

$$$$
>  <molecule>
CC1=CC(C)(C)Nc2ccc3c(c21)C(c1ccc(Cl)cc1)Oc1ccccc1-3 (stereo unspecified)

>  <Ki / nM>
2680

$$$$
>  <molecule>
CC1=CC(C)(C)Nc2ccc3c(c21)C(c1ccc(C)c(F)c1)Oc1ccccc1-3 (stereo unspecified)

>  <Ki / nM>
1580

$$$$

Consider now this further molecule.
The measured Ki associated with CC1=CC(C)(C)Nc2ccc3c(c21)C(c1cccc(C(F)(F)F)c1)Oc1ccccc1-3 (stereo unspecified) reads 795

* * *

target: Estrogen receptor (Homo sapiens, UniProt Q92731+P03372); assay: Antagonistic activity was determined in Human estrogen receptor(hER) of CV-1 cells in cotransfection assay.; format: functional, cell-based
reported.property: IC50 (nM)
Report only the number, with the unit nM understood.

>  <compound>
CC1=CC(C)(C)Nc2ccc3c(c21)C(c1ccc(C)cc1)Oc1ccccc1-3 (configuration not stated)

>  <unit.of.measurement>
nM

>  <obs.value>
2395

$$$$
>  <compound>
CC1=CC(C)(C)Nc2ccc3c(c21)C(c1cccc(Br)c1)Oc1ccccc1-3 (configuration not stated)

>  <unit.of.measurement>
nM

>  <obs.value>
1095

$$$$
>  <compound>
CC1=CC(C)(C)Nc2ccc3c(c21)C(c1ccc(Cl)c(Cl)c1)Oc1ccccc1-3 (configuration not stated)

>  <unit.of.measurement>
nM

>  <obs.value>
2632

$$$$
>  <compound>
CC1=CC(C)(C)Nc2ccc3c(c21)C(c1ccc(Cl)cc1)Oc1ccccc1-3 (configuration not stated)

>  <unit.of.measurement>
nM

>  <obs.value>
1803

$$$$
>  <compound>
CC1=CC(C)(C)Nc2ccc3c(c21)C(c1cccc(Cl)c1)Oc1ccccc1-3 (configuration not stated)

>  <unit.of.measurement>
nM

>  <obs.value>
1480

$$$$

For CC1=CC(C)(C)Nc2ccc3c(c21)C(c1ccc(C)c(F)c1)Oc1ccccc1-3 (configuration not stated) on Estrogen receptor (Homo sapiens, UniProt Q92731+P03372), measured IC50 was 1449

For CC1=CC(C)(C)Nc2ccc3c(c21)C(c1cc(C)cc(Br)c1)Oc1ccccc1-3 (configuration not stated) on Estrogen receptor (Homo sapiens, UniProt Q92731+P03372), measured IC50 was 1037

* * *

target: Progesterone receptor (Homo sapiens, UniProt P06401); assay: Agonistic activity to the human progesterone receptor (hPR)assayed in CV-1 cells in cotransfection assay.; assay type: functional, cell-based
pEC50 reference
Worth noting: pEC50 values are minus log10 of concentrations stated in mol/L.

>  <molecule>
CC1=CC(C)(C)Nc2ccc3c(c21)C(c1ccc(Br)nc1)Oc1ccccc1-3 (configuration not stated)

>  <reported.property>
pEC50

>  <obs.value>
5.41

$$$$
>  <molecule>
CC1=CC(C)(C)Nc2ccc3c(c21)C(c1ccc(C)c(F)c1)Oc1ccccc1-3 (configuration not stated)

>  <reported.property>
pEC50

>  <obs.value>
7.80

$$$$
>  <molecule>
CC1=CC(C)(C)Nc2ccc3c(c21)C(c1cc(Cl)cc(Cl)c1)Oc1ccccc1-3 (configuration not stated)

>  <reported.property>
pEC50

>  <obs.value>
7.30

$$$$
>  <molecule>
CC1=CC(C)(C)Nc2ccc3c(c21)C(c1cc(C)cc(Br)c1)Oc1ccccc1-3 (configuration not stated)

>  <reported.property>
pEC50

>  <obs.value>
7.77

$$$$
>  <molecule>
CC1=CC(C)(C)Nc2ccc3c(c21)C(c1ccc(Cl)cc1)Oc1ccccc1-3 (configuration not stated)

>  <reported.property>
pEC50

>  <obs.value>
7.85

$$$$

For CC1=CC(C)(C)Nc2ccc3c(c21)C(c1ccc(Cl)c(F)c1)Oc1ccccc1-3 (configuration not stated) on Progesterone receptor (Homo sapiens, UniProt P06401), measured pEC50 was 7.77

For CC1=CC(C)(C)Nc2ccc3c(c21)C(c1ccc(Cl)c(Cl)c1)Oc1ccccc1-3 (configuration not stated) on Progesterone receptor (Homo sapiens, UniProt P06401), measured pEC50 was 7.74

For CC1=CC(C)(C)Nc2ccc3c(c21)C(c1ccc(C(F)(F)F)cc1)Oc1ccccc1-3 (configuration not stated) on Progesterone receptor (Homo sapiens, UniProt P06401), measured pEC50 was 7.48

For CC1=CC(C)(C)Nc2ccc3c(c21)C(c1cccc(F)c1)Oc1ccccc1-3 (configuration not stated) on Progesterone receptor (Homo sapiens, UniProt P06401), measured pEC50 was 8.10

For CC1=CC(C)(C)Nc2ccc3c(c21)C(c1ccc(F)c(C(F)(F)F)c1)Oc1ccccc1-3 (configuration not stated) on Progesterone receptor (Homo sapiens, UniProt P06401), measured pEC50 was 7.60
